Assay notes: MRT in Wistar-Han rat at 2 mg/kg, iv measured after 24 hrs by LC-MS/MS analysis
Assay type: ADME, organism-based
Condition label: in vivo
Experimental endpoint: MRT (h)
Report the figure in h without appending any unit label.

Enquiry: Quick one: MRT of "C[C@@]1(N2CCC(c3cc4cc(NC(=O)[C@H]5CC56CCOCC6)ncc4cc3Cl)CC2)COC[C@@H]1O" ?
Return: 2.7

Enquiry: Next molecule: C[C@@]1(N2CCC(c3cc4cc(NC(=O)C5CC56CC6)ncc4cc3Cl)CC2)COC[C@@H]1O (stereo partly drawn)
Return: 9

Enquiry: Next molecule: "C[C@@]1(N2CCC(c3cc4cc(NC(=O)[C@H]5C[C@@H]5c5ccccn5)ncc4cc3Cl)CC2)COC[C@@H]1O"
Return: 5.6

* * *

System: Leucine-rich repeat serine/threonine-protein kinase 2 (Homo sapiens, UniProt Q5S007, G2019S)
Sequence (Q5S007 whole entry G2019S, the tested form may be a part): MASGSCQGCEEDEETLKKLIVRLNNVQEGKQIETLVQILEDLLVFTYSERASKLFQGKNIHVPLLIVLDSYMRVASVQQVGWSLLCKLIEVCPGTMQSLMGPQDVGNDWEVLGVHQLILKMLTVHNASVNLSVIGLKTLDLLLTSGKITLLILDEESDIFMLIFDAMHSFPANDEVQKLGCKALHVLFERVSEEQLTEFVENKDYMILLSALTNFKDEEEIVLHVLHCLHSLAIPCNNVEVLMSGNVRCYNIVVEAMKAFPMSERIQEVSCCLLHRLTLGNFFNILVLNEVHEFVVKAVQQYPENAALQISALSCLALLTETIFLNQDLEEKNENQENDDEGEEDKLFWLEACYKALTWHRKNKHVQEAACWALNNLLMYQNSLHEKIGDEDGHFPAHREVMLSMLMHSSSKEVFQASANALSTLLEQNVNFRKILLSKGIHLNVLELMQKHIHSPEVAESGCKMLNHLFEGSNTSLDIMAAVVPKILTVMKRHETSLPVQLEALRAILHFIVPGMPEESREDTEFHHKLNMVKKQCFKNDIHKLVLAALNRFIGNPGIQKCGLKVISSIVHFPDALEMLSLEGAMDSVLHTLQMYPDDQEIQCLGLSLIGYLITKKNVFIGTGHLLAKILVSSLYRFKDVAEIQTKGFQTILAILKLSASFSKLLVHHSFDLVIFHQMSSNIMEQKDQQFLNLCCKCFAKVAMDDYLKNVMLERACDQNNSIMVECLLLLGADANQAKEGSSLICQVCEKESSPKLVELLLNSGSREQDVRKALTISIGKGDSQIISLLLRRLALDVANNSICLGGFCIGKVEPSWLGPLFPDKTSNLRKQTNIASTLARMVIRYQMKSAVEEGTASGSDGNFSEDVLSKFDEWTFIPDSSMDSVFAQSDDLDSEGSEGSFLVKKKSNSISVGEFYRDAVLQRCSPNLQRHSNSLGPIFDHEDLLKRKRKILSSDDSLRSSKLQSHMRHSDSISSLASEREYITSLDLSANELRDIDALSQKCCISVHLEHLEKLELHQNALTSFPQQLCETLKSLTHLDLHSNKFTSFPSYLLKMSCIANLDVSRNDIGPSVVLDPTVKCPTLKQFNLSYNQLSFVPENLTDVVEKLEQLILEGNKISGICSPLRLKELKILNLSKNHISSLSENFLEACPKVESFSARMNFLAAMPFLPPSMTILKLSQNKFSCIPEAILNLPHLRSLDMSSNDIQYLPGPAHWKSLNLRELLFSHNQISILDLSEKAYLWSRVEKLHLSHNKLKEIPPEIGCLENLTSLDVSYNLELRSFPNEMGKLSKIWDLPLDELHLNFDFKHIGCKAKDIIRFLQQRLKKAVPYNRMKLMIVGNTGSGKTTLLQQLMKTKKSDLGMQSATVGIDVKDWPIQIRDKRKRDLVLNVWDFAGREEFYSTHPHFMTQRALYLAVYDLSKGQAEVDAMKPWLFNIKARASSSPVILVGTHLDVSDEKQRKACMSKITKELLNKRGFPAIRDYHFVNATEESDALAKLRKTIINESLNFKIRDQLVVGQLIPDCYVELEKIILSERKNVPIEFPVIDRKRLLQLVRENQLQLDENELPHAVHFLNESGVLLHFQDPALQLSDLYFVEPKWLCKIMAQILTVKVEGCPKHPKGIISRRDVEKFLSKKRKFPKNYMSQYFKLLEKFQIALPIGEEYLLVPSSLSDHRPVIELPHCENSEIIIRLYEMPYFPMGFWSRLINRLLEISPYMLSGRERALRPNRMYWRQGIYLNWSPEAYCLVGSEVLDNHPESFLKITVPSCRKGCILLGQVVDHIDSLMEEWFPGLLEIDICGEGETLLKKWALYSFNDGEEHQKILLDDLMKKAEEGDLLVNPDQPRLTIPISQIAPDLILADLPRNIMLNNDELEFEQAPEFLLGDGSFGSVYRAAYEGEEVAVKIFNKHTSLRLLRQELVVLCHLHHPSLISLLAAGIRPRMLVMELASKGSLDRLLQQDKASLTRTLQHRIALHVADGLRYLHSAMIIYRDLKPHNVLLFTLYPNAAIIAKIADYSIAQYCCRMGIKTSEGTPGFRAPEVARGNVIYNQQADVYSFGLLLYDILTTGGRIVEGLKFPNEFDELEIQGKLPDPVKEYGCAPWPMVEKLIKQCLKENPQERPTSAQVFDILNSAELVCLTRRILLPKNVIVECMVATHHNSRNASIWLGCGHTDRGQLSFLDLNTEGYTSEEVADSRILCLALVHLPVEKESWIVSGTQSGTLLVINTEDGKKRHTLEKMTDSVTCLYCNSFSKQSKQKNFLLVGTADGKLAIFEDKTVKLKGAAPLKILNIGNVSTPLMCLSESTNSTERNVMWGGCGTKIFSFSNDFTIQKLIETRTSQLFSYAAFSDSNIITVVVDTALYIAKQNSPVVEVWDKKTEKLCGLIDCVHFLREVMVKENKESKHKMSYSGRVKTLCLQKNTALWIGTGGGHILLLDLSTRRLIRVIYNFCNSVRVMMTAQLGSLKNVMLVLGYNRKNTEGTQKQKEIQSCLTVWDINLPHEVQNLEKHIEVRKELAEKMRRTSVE
Assay notes: Inhibition of recombinant N-terminal GST-fused LRRK2 […] mutant (970 to 2527 residues) (unknown origin) using LRRKtide peptide as substrate assessed as inhibition of substrate phosphorylation preincubated with compound for 15 mins followed by substrate addition and measured after 90 mins in presence of ATP by TR-FRET assay
Experimental endpoint: pIC50
The meaning of pIC50 here: minus log10 of the concentration in molar units.

Enquiry: Quick one: pIC50 of "CC1(N2CCC(c3cc4cc(NC(=O)C5CC5)ncc4cc3Cl)CC2)COC1" ?
Return: 8.52

Enquiry: Next compound: "Cn1cc(C(=O)Nc2cc3cc(C4CCN([C@]5(C)COC[C@@H]5O)CC4)c(Cl)cc3cn2)cn1"
Return: 9.10

Enquiry: Next compound: C[C@@]1(N2CCC(c3cc4cc(NC(=O)C5CC56CC6)ncc4cc3Cl)CC2)COC[C@@H]1O (stereo partly drawn)
Return: 8.52

Enquiry: Next compound: "Cn1cc([C@H]2C[C@@H]2C(=O)Nc2cc3cc(C4CCN([C@]5(C)COC[C@@H]5O)CC4)c(Cl)cc3cn2)cn1"
Return: 9.30

Enquiry: Next compound: "C[C@@]1(N2CCN(c3cc4cc(NC(=O)[C@H]5CC56CCOCC6)ncc4cc3Cl)CC2)COC[C@@H]1O"
Return: 9.40

* * *

System: Nav1.5 (Homo sapiens)
Sequence (Q14524 whole entry): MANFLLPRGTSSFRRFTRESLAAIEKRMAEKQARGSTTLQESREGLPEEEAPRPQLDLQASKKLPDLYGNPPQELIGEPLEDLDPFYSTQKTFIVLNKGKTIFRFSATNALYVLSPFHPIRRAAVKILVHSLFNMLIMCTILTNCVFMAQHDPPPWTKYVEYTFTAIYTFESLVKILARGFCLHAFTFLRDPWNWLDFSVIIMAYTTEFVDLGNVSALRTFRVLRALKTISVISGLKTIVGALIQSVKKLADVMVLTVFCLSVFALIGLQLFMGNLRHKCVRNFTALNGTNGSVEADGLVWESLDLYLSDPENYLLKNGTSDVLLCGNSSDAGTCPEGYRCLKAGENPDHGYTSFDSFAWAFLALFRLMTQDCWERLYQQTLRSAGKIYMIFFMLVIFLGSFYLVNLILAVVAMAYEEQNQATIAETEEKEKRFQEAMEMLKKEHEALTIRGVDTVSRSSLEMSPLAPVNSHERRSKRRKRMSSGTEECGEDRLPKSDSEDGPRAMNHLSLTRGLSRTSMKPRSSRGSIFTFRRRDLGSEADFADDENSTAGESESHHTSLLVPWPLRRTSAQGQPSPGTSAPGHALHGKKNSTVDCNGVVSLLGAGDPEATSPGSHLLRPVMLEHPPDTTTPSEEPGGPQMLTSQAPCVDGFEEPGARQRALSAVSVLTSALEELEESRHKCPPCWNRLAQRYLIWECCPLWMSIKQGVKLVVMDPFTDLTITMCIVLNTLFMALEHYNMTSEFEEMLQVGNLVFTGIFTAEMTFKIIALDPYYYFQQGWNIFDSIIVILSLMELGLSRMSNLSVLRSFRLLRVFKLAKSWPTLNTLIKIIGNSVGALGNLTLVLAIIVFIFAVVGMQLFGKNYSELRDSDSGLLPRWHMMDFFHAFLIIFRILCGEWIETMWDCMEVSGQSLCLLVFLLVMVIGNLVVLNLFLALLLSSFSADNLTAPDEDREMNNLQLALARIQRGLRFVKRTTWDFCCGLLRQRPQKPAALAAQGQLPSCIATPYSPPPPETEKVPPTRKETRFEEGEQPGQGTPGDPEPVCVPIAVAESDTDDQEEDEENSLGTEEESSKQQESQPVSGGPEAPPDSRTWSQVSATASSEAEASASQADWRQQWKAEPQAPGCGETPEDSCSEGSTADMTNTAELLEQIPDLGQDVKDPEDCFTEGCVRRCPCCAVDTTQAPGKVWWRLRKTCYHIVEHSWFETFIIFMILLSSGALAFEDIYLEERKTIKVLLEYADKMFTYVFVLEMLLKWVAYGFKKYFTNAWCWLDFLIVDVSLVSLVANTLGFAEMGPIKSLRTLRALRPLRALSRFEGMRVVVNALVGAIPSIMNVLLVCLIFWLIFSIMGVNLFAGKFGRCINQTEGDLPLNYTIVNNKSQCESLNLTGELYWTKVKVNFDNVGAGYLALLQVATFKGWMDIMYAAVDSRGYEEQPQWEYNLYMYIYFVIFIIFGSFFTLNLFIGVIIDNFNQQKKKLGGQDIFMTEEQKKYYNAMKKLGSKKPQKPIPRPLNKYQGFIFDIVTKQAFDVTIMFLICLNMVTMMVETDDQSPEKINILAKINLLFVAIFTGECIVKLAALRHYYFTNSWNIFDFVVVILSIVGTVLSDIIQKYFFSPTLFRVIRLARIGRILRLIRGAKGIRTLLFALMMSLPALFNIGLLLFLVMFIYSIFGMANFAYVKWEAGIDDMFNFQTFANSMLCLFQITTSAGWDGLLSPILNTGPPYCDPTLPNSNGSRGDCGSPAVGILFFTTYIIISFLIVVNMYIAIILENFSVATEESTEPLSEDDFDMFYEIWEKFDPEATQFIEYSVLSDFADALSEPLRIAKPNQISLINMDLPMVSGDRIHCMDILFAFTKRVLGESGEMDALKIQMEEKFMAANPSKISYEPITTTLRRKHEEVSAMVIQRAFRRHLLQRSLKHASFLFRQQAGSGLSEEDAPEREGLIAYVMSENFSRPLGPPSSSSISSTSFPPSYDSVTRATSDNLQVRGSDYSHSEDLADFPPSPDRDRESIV
Assay notes: Inhibition of human Nav1.5 expressed in HEK293 cells by QPatch voltage clamp assay
Assay type: cell-based
Condition label: human, HEK293 cells expressing human Nav1.5
Experimental endpoint: IC20

Enquiry: Form field: IC20 recorded for C[C@@]1(N2CCC(c3cc4cc(NC(=O)C5CC56CC6)ncc4cc3Cl)CC2)COC[C@@H]1O (stereo partly specified) with Nav1.5 (Homo sapiens) (enter value)
Return: 10 µM

* * *

Assay notes: Oral bioavailability in Beagle dog at 5 mg/kg measured after 24 hrs by LC-MS/MS analysis
Format: ADME, organism-based, Canis lupus familiaris
Condition label: in vivo
Experimental endpoint: bioavailability (%)
Report the figure in % without appending any unit label.

Enquiry: Quick one: bioavailability of "C[C@@]1(N2CCN(c3cc4cc(NC(=O)[C@H]5CC56CCOCC6)ncc4cc3Cl)CC2)COC[C@@H]1O" ?
Return: 100

* * *

Assay notes: Protein binding in human plasma incubated for 4 hrs by equilibrium dialysis method
Format: ADME, cell-free
Condition label: read-out: PPB (converted)
Experimental endpoint: fraction unbound at 4 h
Kindly provide the number alone.

Enquiry: Quick one: fraction unbound at 4 h of "C[C@@]1(N2CCN(c3cc4cc(NC(=O)[C@H]5CC56CCOCC6)ncc4cc3Cl)CC2)COC[C@@H]1O" ?
Return: 0.131
